Source: ChEMBL document CHEMBL5291721

Read-out record for Alpha-2A adrenergic receptor (Homo sapiens, UniProt P08913): AC50

Look up AC50: C[C@H]1O[C@H](O[C@H]2[C@H](O)[C@@H](O)[C@@H](O[C@H]3[C@H](O)[C@@H](O)C(O)O[C@@H]3CO)O[C@@H]2CO)[C@H](O)[C@@H](O)[C@@H]1N[C@H]1C=C(CO)[C@@H](O)[C@H](O)[C@H]1O (some centres not stated)
> 30 µM

State the recorded AC50 for this entry: C(=N\NC1=NCCN1)/c1c2ccccc2c(/C=N/NC2=NCCN2)c2ccccc12
11.6 µM

Given the compound CC/C=C\C/C=C\C/C=C\C/C=C\C/C=C\CCCC(=O)O , what is its reported AC50?
> 30 µM

Can you share its AC50? I mean this compound: CCc1ccc(CCOc2ccc(CC3SC(=O)NC3=O)cc2)nc1 (configuration not stated)
> 30 µM

Which AC50 reading was recorded for the compound C[N+](C)(C)CCCCCCCCCC[N+](C)(C)C ?
> 30 µM

Given O=C1NCC2(CCN(CCc3ccccc3)CC2)O1 [FENSPIRIDE] , state its recorded AC50.
8.2 µM

I have this compound here, CCCC[N+]1(C)[C@@H]2C[C@@H](OC(=O)[C@H](CO)c3ccccc3)C[C@H]1[C@@H]1O[C@@H]12 (some centres not stated) , and I need its recorded AC50.
> 30 µM

Name the recorded AC50 for Cc1c(-c2ccccc2)oc2c(C(=O)OCCN3CCCCC3)cccc2c1=O [FLAVOXATE] .
13.9 µM

AC50 for CCS(=O)(=O)N1CC(CC#N)(n2cc(-c3ncnc4[nH]ccc34)cn2)C1 ?
> 30 µM

Item CO[C@@]12[C@H](COC(N)=O)C3=C(C(=O)C(C)=C(N)C3=O)N1C[C@@H]1N[C@@H]12 has what recorded AC50?
> 30 µM

Quick one: AC50 of Nc1nc(-n2cc(C(=O)O)c(=O)c3cc(F)c(N4CC(O)C4)c(Cl)c32)c(F)cc1F ?
> 30 µM

Bench note: what AC50 did CC(C)C(=O)Nc1ccc([N+](=O)[O-])c(C(F)(F)F)c1 [FLUTAMIDE] show?
> 30 µM

Which AC50 is listed for CCC(Cc1c(I)cc(I)c(N)c1I)C(=O)O (configuration not stated) ?
> 30 µM

What value of measured AC50 is listed for O=C(c1ccc(F)c(F)c1Nc1ccc(I)cc1F)N1CC(O)([C@@H]2CCCCN2)C1 ?
> 30 µM

Consider the compound shown here: Nc1nc2c(ncn2CCC(CO)CO)c(=O)[nH]1 What is its recorded AC50?
> 30 µM

Recorded AC50 for CCOC(=O)c1ccc(O)cc1 , please?
> 30 µM

Report AC50 for Cc1ccc(O)c2ncccc12 please.
> 30 µM
